biological target: recombinant human GM-CSF (human, UniProt P04141 18-144); assay: cell-based or functional assay
Sequence (P04141 18-144 limits assumed): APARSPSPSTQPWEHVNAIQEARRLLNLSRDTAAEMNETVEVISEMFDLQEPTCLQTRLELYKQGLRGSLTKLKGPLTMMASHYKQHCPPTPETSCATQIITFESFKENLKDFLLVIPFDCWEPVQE
Reported IC50 (M), inhibition of GM-CSF induced TF-1 cell proliferation (FIG. 5B) is given for each of the following binders.
Record the value in M, omitting the unit from your answer.

Answered cases to consult:
[
  {
    "binder": "1D2 SDR mutant LV32R (antibody, IgG1, V domains shown, also called X8 R) VH: QVQLVQSGAEVKKPGASVKVSCEASGYTFTDKYLHWVRQAPGQGLEWMAWINPKSGGTFYAQNFKGRVTVTRDTSINTAYLELTSLRLDDTSTYYCARGRDYYDQGAADLWGQGTMVTVSS VL: DIQLTQSPSSLSASVGDRVTITCRASQGINSRLAWYQQKPGKAPKLLLYAASKLESGVPSRFSGSGSGTDYTLTISSLQPEDFGTYYCQQYYSPVRTFGQGTKVEIKR",
    "unitsSymbol": "M",
    "valueObserved": "2.48e-09"
  },
  {
    "binder": "1D2 SDR mutant K54G/V32R (antibody, IgG1, V domains shown, also called 54G/32R) VH: QVQLVQSGAEVKKPGASVKVSCEASGYTFTDKYLHWVRQAPGQGLEWMAWINPGSGGTFYAQNFKGRVTVTRDTSINTAYLELTSLRLDDTSTYYCARGRDYYDQGAADLWGQGTMVTVSS VL: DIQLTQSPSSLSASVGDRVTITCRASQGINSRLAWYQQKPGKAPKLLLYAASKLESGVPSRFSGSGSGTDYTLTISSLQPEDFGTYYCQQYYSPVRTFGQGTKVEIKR",
    "unitsSymbol": "M",
    "valueObserved": "6.62e-09"
  },
  {
    "binder": "1D2 SDR mutant LP94N (antibody, IgG1, V domains shown, also called X9 N) VH: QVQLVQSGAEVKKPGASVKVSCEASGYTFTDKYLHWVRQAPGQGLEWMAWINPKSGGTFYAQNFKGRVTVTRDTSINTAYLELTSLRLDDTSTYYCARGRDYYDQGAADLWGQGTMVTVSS VL: DIQLTQSPSSLSASVGDRVTITCRASQGINSVLAWYQQKPGKAPKLLLYAASKLESGVPSRFSGSGSGTDYTLTISSLQPEDFGTYYCQQYYSNVRTFGQGTKVEIKR",
    "unitsSymbol": "M",
    "valueObserved": "1.49e-09"
  }
]

# input for lookup
Entry 1D2 SDR mutant HK54G (antibody, IgG1, V domains shown, also called X3 G) VH: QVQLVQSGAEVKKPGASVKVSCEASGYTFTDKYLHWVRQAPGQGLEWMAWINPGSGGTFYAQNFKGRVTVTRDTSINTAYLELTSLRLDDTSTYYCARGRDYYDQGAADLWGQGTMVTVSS VL: DIQLTQSPSSLSASVGDRVTITCRASQGINSVLAWYQQKPGKAPKLLLYAASKLESGVPSRFSGSGSGTDYTLTISSLQPEDFGTYYCQQYYSPVRTFGQGTKVEIKR : reported IC50 (M), inhibition of GM-CSF induced TF-1 cell proliferation (FIG. 5B) = ? 1.87e-09
